test system: α7 integrin (LacZ reporter in α7+/LacZ myotubes); assay: Myotube α7 integrin FDG assay (Burkin assay in myotubes, 96-well); assay type: cell-based, mouse; conditions: Mus musculus, Myotube; 5 uM, myotubes; read-out: Burkin Assay in Myotubes (signal relative to DMSO)
Listing of entries alongside the reported fold induction at 5 µM.
Measured quantity: fold induction at 5 µM

1) COc1ccccc1NC(=O)CCCc1c[nH]c2ccccc12 : 1
2) COc1cccc(NC(=O)c2ccc3c(c2)CCCC3)c1 : 1.05
3) CC(=O)c1cccc(NC(=O)C(=O)Nc2cccc3ccccc23)c1 : 1.06
4) O=C(Nc1ccc(S(=O)(=O)Nc2nccs2)cc1)c1ccccc1OC(F)F : 1.23

---

test system: α7 integrin (LacZ reporter in α7βgal+/− myoblasts); test: Myoblast α7+/LacZ integrin FDG assay (Burkin assay in myoblasts, 96-well); assay type: cell-based, mouse; details: Mus musculus, Myoblast, 48 h; 5 uM; α7+/LacZ myoblasts, 96-well; read-out: Burkin Assay in Myoblasts, signal relative to DMSO
Response field label takes true (1) when fold induction at 5 µM is strictly below 1 and false (0) in all other cases.

1. COc1ccccc1C(=O)Nc1nc2cc3c(cc2s1)OCO3 [MLS000419555-01] : false (0)
2. CCOC(=O)C1CCCN(C(=O)CNS(=O)(=O)c2ccc(Br)s2)C1 (centres unmarked) [MLS000086970-01] : true (1)
3. COc1ccc(Nc2ncnc3ccc(Br)cc23)cc1OC [MLS001196422-01] : false (0)

---

test system: α7 integrin (LacZ reporter in α7+/LacZ myotubes); assay: Myotube α7 integrin FDG assay (Burkin assay in myotubes, 96-well); assay type: cell-based, mouse; details: 20 uM, myotubes
Response field label takes Yes when Burkin Assay in Myotubes (signal relative to DMSO) is strictly below 1 and No in all other cases.

1) O=Cc1ccc(C(=O)OCC(=O)N2CCCC2)cc1 [MLS001172577-01] : No
2) Cc1nnc(NC(=O)CSc2nnc(CCNC(=O)c3ccccc3F)n2C)s1 [MLS001217045-01] : No
3) c1ccc(-c2cnc(-c3ccccc3)nc2)cc1 [MLS000532078-01] : No
4) CS(=O)(=O)Cc1cccc(C(=O)NN(c2ccccc2)c2ccccc2)c1 [MLS001175473-01] : No
5) O=C(COc1cc2oc(=O)c3c(c2cc1Cl)CCCC3)NCC1CCC(C(=O)O)CC1 (stereo not shown) [MLS001157804-01] : No
6) Cc1ccccc1C(=O)Nc1scc(-c2ccc(Br)cc2)c1C(=O)O [MLS001179267-01] : Yes
7) CC(C(=O)Nc1ccc(C#N)cc1)N(C)CC(=O)Nc1cccc(F)c1 (stereo not shown) [MLS001033255-01] : Yes
8) COc1cc(Cl)cc(CN2CCC(CCC(=O)NC3CC3)CC2)c1OC [MLS001162872-01] : No
9) CCc1c(C2(O)CCCCC2)[nH]c2ncccc12 [MLS002402866-01] : No
10) COc1cc(/C=C/c2nc(-c3ccccc3O)n[nH]2)cc(OC)c1OC [MLS000548725-01] : No
11) C/C(=N/OC(=O)CC(C)C)c1cc(-c2ccc(Cl)cc2)no1 [MLS000721030-01] : No
12) Cc1ccc(-c2csc(Nc3ccc(C(=O)O)cc3)[n+]2Cc2ccccc2)cc1 [MLS000374261-01] : Yes
13) CC(=O)c1cccc(NC(=O)C2CCCN(S(=O)(=O)c3cccc4nonc34)C2)c1 (stereo not shown) [MLS000937079-01] : No
14) OC1(c2ccccc2)C/C(=N\n2cnnc2)C=C1c1ccccc1 (stereo not shown) [MLS000081838-01] : No
15) Cc1cc(NC(=O)CN2C(=O)/C(=C/c3ccccc3F)SC2=S)no1 [MLS001219159-01] : Yes

---

tested on: α7 integrin (LacZ reporter in α7βgal+/− myoblasts); test: Myoblast α7+/LacZ integrin FDG assay (Burkin assay in myoblasts, 96-well); type: cell-based, mouse; details: 40 uM; α7+/LacZ myoblasts, 96-well
Listing of entries alongside the reported Burkin Assay in Myoblasts, value relative to DMSO.
Measured quantity: Burkin Assay in Myoblasts, value relative to DMSO

1) CCOc1cc(/C=C2\C(=O)ON=C2c2ccccc2)ccc1OC : 0.08385
2) COc1ccc(C(=O)O/N=C(\N)c2cccc(C)c2)cc1OC : 0.4779
3) NC(=O)c1nsc(C(=O)N(c2ccccc2)C(C(=O)NCc2ccc(F)cc2)c2ccc(O)cc2)c1N (centres unmarked) : 0.5423
4) O=C(O)c1cc(-c2ccccc2Cl)n(-c2cccc(Cl)c2)n1 : 1.032
5) COc1cccc(N2C(=O)CC(N3CCc4ccccc4C3)C2=O)c1 (centres unmarked) : 0.955
6) Cc1ccc(NC(=O)CC2COc3ccccc3O2)cc1 (centres unmarked) : 0.4222
7) CC(=O)Nc1ccc(NC(=O)[C@@H](NC(=O)c2cccc(C)c2)C(C)C)cc1 : 0.9475
8) CCS(=O)(=O)N1CCCC(C(=O)c2ccc(OC)cc2C)C1 (centres unmarked) : 0.9175
9) COC(=O)c1ccc(COC(=O)CNC(=O)c2cccs2)cc1 : 0.8729
10) COc1ccccc1N(C(=O)CNC(=O)c1ccco1)C(C(=O)NC1CCCCC1)c1ccncc1 (centres unmarked) : 0.7613
11) CCCC(=O)Nc1ccccc1NC(=O)c1ccc(OCC)cc1 : 0.9848
12) COc1cc(NC(=O)CN(C)S(=O)(=O)c2ccc3c(c2)CC(C)N3C(C)=O)cc(OC)c1OC (centres unmarked) : 0.8058
13) CC(=O)c1cccc(NC(=O)C2CCCN(S(=O)(=O)c3cccc4nonc34)C2)c1 (centres unmarked) : 0.9956
14) CCCCS(=O)(=O)N1CCCC(C(=O)NCCc2ccccc2)C1 (centres unmarked) : 0.9157
15) Cc1ccc(-c2onc3ccc(C(=O)/C=C/N(C)C)cc23)cc1 : 0.3481
16) C[C@H]1CNC(=O)c2c(C(=O)Nc3ccc(CNC(=O)OC(C)(C)C)cc3)ncn21 : 0.4401
17) CS(=O)(=O)N(Cc1ccc(C(=O)NC2CCCC2)cc1)c1ccccc1 : 0.9626

---

tested on: α7 integrin (LacZ reporter in α7+/LacZ myotubes); assay: Myotube α7 integrin FDG assay (Burkin assay in myotubes, 96-well); format: cell-based, mouse; settings: myotubes, 40 uM
Response field label takes 1 (yes) when Burkin Assay in Myotubes, α7 integrin LacZ reporter signal relative to DMSO is strictly below 0.8 and 0 (no) in all other cases.

1) COc1ccc(CNC(=O)C2CCCN(S(=O)(=O)c3c(C)noc3/C=C/N(C)C)C2)cc1 (centres unmarked) : 1 (yes)
2) O=C(COc1ccc(Cl)cc1)N1CCN(C2CCCC2)CC1.O=C(O)C(=O)O : 1 (yes)
3) COC(=O)Cn1c(=O)c2c(nc3n2CC(C)CN3Cc2ccccc2)n(C)c1=O (centres unmarked) : 0 (no)
4) O=C(NCc1ccccc1)c1csc(-c2cccnc2)n1 : 0 (no)
5) O=C(COC(=O)Cn1cnc2ccccc21)Nc1cccc([N+](=O)[O-])c1 : 1 (yes)
6) CC(NC(=O)c1ccc(C(C)(C)C)cc1)C(c1cccs1)N1CCOCC1 (centres unmarked) : 0 (no)

---

Listing of entries alongside the reported CMV-LACZ in Myotubes (β-galactosidase activity relative to DMSO).
tested on: β-galactosidase in CMV-LacZ C2C12 myotubes; test: CMV-LacZ secondary screen in C2C12 myotubes (β-Gal stabilizing assay); format: cell-based, mouse; conditions: 40 uM; CMV-LacZ C2C12 myotubes; 96-well format
Measured quantity: CMV-LACZ in Myotubes (β-galactosidase activity relative to DMSO)

1) COCCN(CC(=O)Nc1cccc(C)c1C)C(=O)C1CCN(S(=O)(=O)c2ccccc2)CC1 [MLS002156278-01] : 1.031
2) CS(=O)(=O)N(Cc1ccc(C(=O)NC2CCCC2)cc1)c1ccccc1 [MLS000714175-01] : 0.971
3) N/C(=N\OC(=O)COc1cc(Cl)c(Cl)cc1Cl)c1ccncc1 [MLS000625140-01] : 1.016
4) O=C(COC(=O)c1cc2ccccc2oc1=O)Nc1ccc(F)cc1F [MLS000516719-01] : 1.072

---

system: β-galactosidase in CMV-LacZ C2C12 myotubes; experiment: CMV-LacZ secondary screen in C2C12 myotubes (β-Gal stabilizing assay); format: cell-based, mouse; conditions: 5 uM; C2C12 CMV-LacZ myotubes; fold relative to DMSO
Measured quantity: CMV-LACZ in Myotubes, signal relative to DMSO

1) O=c1[nH]c2ccccc2nc1-c1c[nH]c2ccccc12 [MLS001181936-01] : 0.9246
2) Nc1ncnc(NCc2ccccc2)c1[N+](=O)[O-] [MLS000698826-01] : 1.1232
3) COc1cc(C(C(=O)NC2CCCCC2)N(C(=O)c2snc(C(N)=O)c2N)c2ccc(C)cc2)ccc1O (stereo not drawn) [MLS001218427-01] : 1.209
4) CCc1c(C)sc(NC(=O)c2ccco2)c1C#N [MLS001240181-01] : 1.0895
5) CCOc1ccc(NC(=O)CN2C(=O)S/C(=C/c3cccn3C)C2=O)cc1 [MLS000702680-01] : 1.008
6) CCOc1cc(C)c(S(=O)(=O)N2CCCCC2)cc1C [MLS000693795-01] : 1.1780
7) Cc1cc(C(=O)Nc2cccc3ccccc23)c(C)o1 [MLS001219345-01] : 1.188
8) COc1cc(C=O)ccc1OCC(=O)Nc1ccc2c(c1)OCO2 [MLS001123876-01] : 0.9002
9) O=C(O)c1csc(-c2cccs2)n1 [MLS000760876-01] : 1.1074
